Values from paper PMC2756588

Target: T1, Lsb3, P43603
T1 sequence (P43603 385-451, looked up): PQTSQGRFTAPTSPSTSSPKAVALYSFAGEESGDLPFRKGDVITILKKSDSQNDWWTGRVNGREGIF
Experiment: SPOT array
Settings: median of control spots 406
Entries whose SPOT intensity is below 2 take Condition met; entries at or above 2 take Condition not met.

Q. Please let me know if IKTRSVPKIPSIESV shows SPOT intensity below 2.
A. Condition not met

Q. Now this one: HRRRRVFSIPSLKSI
A. Condition not met

Q. Now this one: TPRLSLPRLPNKHHW
A. Condition met

Q. Now this one: NRARYLPQNPDIIAG
A. Condition met

Q. Now this one: PPPPPPPPPPPLPQS
A. Condition met

Q. Now this one: GLRRARYKFPGQQKI
A. Condition met
